These measurements were taken from the supplement of paper PMC10567573.

B1: SLC35F2 (parent)
chain: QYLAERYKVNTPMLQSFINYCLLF

# Variants of: B1
# EXPERIMENTAL PROTOCOL: protein stability index of a GFP-peptide fusion (GPS, HEK-293T) (PSI 1-6); higher = more stable;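 further: lentivirally expressed fusions sorted by FACS into six bins by GFP to DsRed ratio, PSI derived from sequencing read proportions per bin multiplied by bin number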
# CONDITION CONTEXT: c terminus: a fixed tail appended
# key: entry, value: protein stability index

**Q:** Fill in: protein stability index of `Y7P` is ___
**A:** 2.98

**Q:** Look at this variant and give its reported protein stability index. `M13S`
**A:** 2.93

**Q:** State the recorded protein stability index for this entry: `T11C`
**A:** 3.08

**Q:** Return reported protein stability index; argument: `E5I`
**A:** 3.06

**Q:** Would you kindly share the measured protein stability index for `R6V` ?
**A:** 2.92

**Q:** Given the entry `L22I` , report its measured protein stability index.
**A:** 3.04

**Q:** Sample `P12L` — what was its protein stability index?
**A:** 3.97

**Q:** # input variant: `C21V` ; wanted: its protein stability index
**A:** 1.62

**Q:** Would you mind telling me what protein stability index value was observed for `L14N` ?
**A:** 2.12

**Q:** # input variant: `Q1S` ; wanted: its protein stability index
**A:** 2.47
